TEST METHOD NOTES: In vivo pharmacokinetics and brain exposure
ASSAY CONDITIONS: mouse, brain; mice, 50 mg/Kg IP, 1 hr; read-out: Brain concentration
Square brackets hold non-standard residues; d marks the D form. Peptide text beside a SMILES is read from it. * marks the point of attachment. Cyclohexanoyl(1S,3S-3-NH2) = N[C@H]1CCC[C@H](C(=O)*)C1; Trp(5-OH) = N[C@@H](Cc1c[nH]c2ccc(O)cc12)C(=O)O; NH(4-morpholinophenyl) = c1cc(N2CCOCC2)ccc1N*; Bip = N[C@@H](Cc1ccc(-c2ccccc2)cc1)C(=O)O; hArg = N=C(N)NCCCC[C@H](N)C(=O)O

[
  {
    "COMPOUND": "N=C(N)NCCCC[C@H](NC(=O)[C@H](Cc1ccc(-c2ccccc2)cc1)NC(=O)[C@H](Cc1c[nH]c2ccc(O)cc12)NC(=O)[C@H]1CCC[C@H](N)C1)C(=O)NCC(=O)Nc1ccc(N2CCOCC2)cc1 [Compound 8] ({Cyclohexanoyl(1S,3S-3-NH2)}-[Trp(5-OH)][Bip][hArg]G-{NH(4-morpholinophenyl)})",
    "level at 1 h": "184 ng/mL"
  }
]
